Read-out: Transforming Growth Factor (TGFA), TGFA (gene 7039)
PROTOCOL_NOTES: LTEA_HepaRG_TGFA: Life Technologies and Expression Analysis (LTEA) Assay for Transforming Growth Factor (TGFA) using HepaRG (AID 2283532)
STATED_CONDITIONS: mRNA level, 48 h; actives raise or lower the signal
Calls of active or inactive are those of the source. The calls were made as follows: active = hit-call score of the fitted dose curve at least 0.9, where 1 is the maximum; inactive = score below 0.9.
Classes used: t (active), f (inactive)

{"CHEMICAL_STRING": "O=C(O)c1ccccc1C(=O)OCc1ccccc1", "LABEL_VALUE": "f"}
{"CHEMICAL_STRING": "CCN(Cc1cccnc1)C(=O)c1cccc(Cl)c1[C@]1(C)C(=O)N(Cc2ccc(OC)cc2OC)c2ccc(Cl)cc21", "LABEL_VALUE": "t"}
{"CHEMICAL_STRING": "Oc1ccccc1", "LABEL_VALUE": "f"}
{"CHEMICAL_STRING": "O=C(Nc1ccc(Cl)cc1)Nc1ccc(Cl)c(Cl)c1", "LABEL_VALUE": "t"}

* * *

TEST_TARGET: human CYP2B6, CYP2B6 (gene 1555)
PROTOCOL_NOTES: NVS_ADME_hCYP2B6: NovaScreen (NVS) CYP450-related Enzyme Activity (ADME) Assay for human CYP2B6 (AID 2283101)
Records with an inconclusive call do not appear. Activity calls are given as the source filed them. Rule for the calls: active = hit-call score of the fitted dose curve at least 0.9, where 1 is the maximum; inconclusive = response in the unintended direction; inactive = score below 0.9.

{"COMPOUND": "CCCCOC(=O)c1ccc(O)cc1", "TEST_TARGET": "human CYP2B6, CYP2B6 (gene 1555)", "AC50": "4.55 µM (active)"}
{"COMPOUND": "CN(C)c1ccc(C(=C2C=CC(=[N+](C)C)C=C2)c2ccc(N(C)C)cc2)cc1", "TEST_TARGET": "human CYP2B6, CYP2B6 (gene 1555)", "AC50": "6.7 µM (active)"}
{"COMPOUND": "OC12N=C(c3ccccc3)SC1Cc1cc(Cl)ccc12 (stereo not given)", "TEST_TARGET": "human CYP2B6, CYP2B6 (gene 1555)", "AC50": "3.9 µM (active)"}
{"COMPOUND": "NCc1cccc(C2CCN(C(=O)c3ccc(C#Cc4ccccc4F)o3)CC2)c1", "TEST_TARGET": "human CYP2B6, CYP2B6 (gene 1555)", "AC50": "5.71 µM (active)"}
{"COMPOUND": "O=c1[nH]sc2ccccc12", "TEST_TARGET": "human CYP2B6, CYP2B6 (gene 1555)", "AC50": "0.721 µM (active)"}

* * *

PROTOCOL_NOTES: BSK_LPS_SRB: Viability Assessment in the BioMAP Diversity Plus: LPS Assay (AID 2283079);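 also: total protein by sulforhodamine B absorbance as a cytotoxicity measure; measured one day after compound addition; fitted in both directions against DMSO so loss or gain of signal counts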
STATED_CONDITIONS: primary human HUVEC with PBMC
Activity calls are given as the source filed them. The calls were made as follows: active = hit-call score of the fitted dose curve at least 0.9, where 1 is the maximum; inactive = score below 0.9.
Classes used: active, inactive

{"COMPOUND": "Cc1oc2c(NC(=O)c3c(Cl)cccc3Cl)cccc2c1C(C)(C)O", "LABEL_VALUE": "active"}
{"COMPOUND": "O=CCCCC=O", "LABEL_VALUE": "inactive"}
{"COMPOUND": "O=C(O)c1ccccc1C(=O)OCc1ccccc1", "LABEL_VALUE": "inactive"}
{"COMPOUND": "c1ccc(C[n+]2cccc3ccccc32)cc1", "LABEL_VALUE": "inactive"}
{"COMPOUND": "CN(C)c1ccc(C(=C2C=CC(=[N+](C)C)C=C2)c2ccc(N(C)C)cc2)cc1", "LABEL_VALUE": "active"}
{"COMPOUND": "O=C=NCCCCCCN=C=O", "LABEL_VALUE": "inactive"}
{"COMPOUND": "CC1(C)NC(=O)N(c2ccc([N+](=O)[O-])c(C(F)(F)F)c2)C1=O", "LABEL_VALUE": "inactive"}
{"COMPOUND": "CCCCCCCCOC(=O)c1cc(O)c(O)c(O)c1", "LABEL_VALUE": "active"}
{"COMPOUND": "C[C@]12CC[C@@H]3c4ccc(O)cc4CC[C@H]3[C@@H]1CC[C@H]2O", "LABEL_VALUE": "active"}
{"COMPOUND": "CCCOC(=O)c1cc(O)c(O)c(O)c1", "LABEL_VALUE": "inactive"}
{"COMPOUND": "CN(C)C(=O)C1(N2CCCCC2)CCN(CC[C@@]2(c3ccc(Cl)c(Cl)c3)CN(C(=O)c3ccccc3)CCO2)CC1", "LABEL_VALUE": "active"}
{"COMPOUND": "CC(O)CC(C)(C)O (configuration not stated)", "LABEL_VALUE": "inactive"}

The values you see were collected from PubChem BioAssay (EPA / NIEHS).
